Where do the numbers come from? From ChEMBL document CHEMBL1155772.

test system: Trypanosoma cruzi; experiment: Antitrypanosomal activity against Trypanosoma cruzi Tulahuen C4; type: functional, organism-based
measure_name: IC50 (µg/mL)
Dear colleague, please return just the value in µg/mL, with no unit written.

[[record]]
molecule = "CC(C)(N)CNC(=O)C[C@H]1CC[C@]2(CC1)OO[C@]1(O2)C2CC3CC(C2)CC1C3"
measure_unit = "µg/mL"
experimental_value = 9.5

[[record]]
molecule = "CC(C)(N)CNC(=O)CC1CC[C@]2(CC1)OC[C@]1(O2)C2CC3CC(C2)CC1C3 (stereo not given in full)"
measure_unit = "µg/mL"
experimental_value = 13


Next item in the queue.
// O=C(Cn1ccnc1[N+](=O)[O-])NCc1ccccc1 : IC50 value = 0.14
